Values compiled from ChEMBL document CHEMBL4680171.

experiment: Selectivity index, ratio of maximum non-toxic concentration for human Caco-2 cells to MIC for antifungal activity against fluconazole-resistant Candida auris 381; assay type: toxicity; details: read-out: Selectivity Index
Test Readout: selectivity ratio

(Q) Recorded selectivity ratio of Cc1nc(-c2ccc(C(C)(C)C)cc2)sc1-c1nnc(N[C@@H]2CCCC[C@@H]2N)o1 (relative stereo) , please.
(A) ≤ 64

----------
test: Selectivity index, ratio of CC50 for African green monkey Vero cells to MIC for antifungal activity against Aspergillus fumigatus NR 35303; format: toxicity; details: read-out: Selectivity Index
Test Readout: selectivity ratio

(Q) I am curious: what selectivity ratio value has been reported for Cc1nc(-c2ccc(C(C)(C)C)cc2)sc1-c1nnc(N[C@@H]2CCCC[C@@H]2N)o1 (relative stereo) ?
(A) ≤ 64
